For each record, write down the corresponding TGI.
- System: TK-10 renal
- EXPERIMENTAL_PROTOCOL: NCI tumour cell line growth inhibition, 48 h

Problem: Which measured TGI value corresponds to C=CCC1(C)CCCCC1(O)CS(=O)c1ccccc1 (stereo not drawn) ?
Result: > 100 µM

Problem: Also, Cc1ccc(C)c(N2C(=O)C(=O)C(c3nc4ccccc4o3)/C(=N/N)C2=O)c1 (stereo not drawn) please.
Result: > 100 µM

Problem: And for COc1ccc2nc3cc(Cl)ccc3c(Sc3ccc(NC(C)=O)cc3)c2c1 ?
Result: > 51.1 µM

Problem: Then COc1ccc(/C(Cl)=C(\C#N)c2ccc(OC)c(OC)c2)cc1OC ?
Result: > 100 µM

Problem: One more compound: COc1cc2c(cc1OC)C1Cc3cc(OC)c(OC)cc3N1CC2 (stereo not drawn)
Result: 50.5 µM

Problem: Lookup NC(=S)N/N=C1\CCCC\C1=C/c1ccccc1
Result: > 100 µM

Problem: Field entry: CN(C)CCCNc1ccc2ncn3c4ccc(O)cc4c(=O)c1c23
Result: 19.8 µM

Problem: Also, Cc1ccc2c(c1)CC1(Cc3cccc(C)c3C1=O)C2=O (stereo not drawn) please.
Result: > 100 µM

Problem: Next: CC(C)(C)OC(=O)N1C2CCCC23O[C@@H]1c1cc2c(cc1C3=O)OCO2 (stereo partly drawn)
Result: > 100 µM

Problem: And what about the compound NCCCn1c2c(c3ccccc3c1=O)C(=O)c1ccccc1-2 ?
Result: 4.19 µM

Problem: What about this compound? CCOC(=O)C1=C(Nc2ccc(Br)cc2)OCC1=O
Result: > 100 µM

Problem: Please give the result for O=C1/C(=C\c2cccc(Oc3ccccc3)c2)S(=O)(=O)C(c2ccccc2)N1c1cccc(Cl)c1 (stereo not drawn) too.
Result: > 100 µM

Problem: Note, next up: O=C(CBr)c1ccc2cc(Br)c3ccccc3c2c1
Result: 36.9 µM

Problem: One more compound: O=C(N/N=C/c1ccc(O)cc1O)c1cccnc1
Result: > 100 µM

Problem: One more compound: COc1cc2c3c(n(CCCN(C)CCO)c(=O)c2cc1OC)-c1cc2c(cc1C3=O)OCO2
Result: > 100 µM

Problem: What about this compound? CCCn1cnc2c(SCc3ccc(Cl)cc3)nc(N)nc21
Result: 55.1 µM

Problem: Also Oc1c(Br)ccc2cccnc12 , if possible.
Result: > 100 µM

Problem: Similarly, CN1C(NNC(=O)c2cccnc2)=NS(=O)(=O)c2cc(Cl)ccc21 ?
Result: > 100 µM

Problem: Next entry: CS(=O)(=O)N1CC(CCl)c2ccc(O)cc21 (stereo not drawn)
Result: 6.98 µM

Problem: And C[Si](C)(C)CN1C(=O)c2ccccc2C1(O)c1ccccc1 (stereo not drawn) ?
Result: > 100 µM

Problem: Here is the next compound: COc1ccc(N2C(=O)C(=O)N(c3ccc(N=Nc4ccccc4)cc3)C2=S)cc1
Result: 50.4 µM

Problem: Let us now turn to O=[N+]([O-])c1ccc(Sc2c3ccccc3nc3ccccc23)cn1
Result: 28.6 µM

Problem: Proceed to COc1ccc2c(c1)C(C)Cc1c(ncnc1-n1cnc3ccccc31)N2C (stereo not drawn)
Result: 37.1 µM

The measured values listed here are drawn from PubChem BioAssay (NCI).
